meta.source: PubChem BioAssay AID1851

- target: Cytochrome P450 3A4 (Homo sapiens) (UniProt P08684)
- Sequence (P08684 whole entry, looked up): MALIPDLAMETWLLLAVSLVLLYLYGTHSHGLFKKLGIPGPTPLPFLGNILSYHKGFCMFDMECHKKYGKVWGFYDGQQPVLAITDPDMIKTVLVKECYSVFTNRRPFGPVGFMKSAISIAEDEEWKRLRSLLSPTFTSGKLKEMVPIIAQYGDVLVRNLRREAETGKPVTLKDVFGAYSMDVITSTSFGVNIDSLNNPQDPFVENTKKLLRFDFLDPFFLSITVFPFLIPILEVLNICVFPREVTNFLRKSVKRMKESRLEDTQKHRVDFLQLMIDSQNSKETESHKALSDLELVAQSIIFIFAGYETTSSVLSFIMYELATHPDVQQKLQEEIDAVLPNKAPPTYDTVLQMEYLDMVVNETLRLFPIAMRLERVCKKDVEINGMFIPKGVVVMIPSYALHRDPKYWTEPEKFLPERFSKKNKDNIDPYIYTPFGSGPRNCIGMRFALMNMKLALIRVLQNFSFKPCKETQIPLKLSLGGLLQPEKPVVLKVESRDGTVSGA
- protocol_text: Cytochrome panel assay with activity outcomes
- measurement_conditions: recombinant CYP, pro-luciferin dealkylation, luminescence, p450-cyp3a4; series mostly up to 57.1 µM
Screen size: about 16,000 compounds; about 5,100 (32%) were called active. Inconclusive results (about 25%) are left out. The call rests on the fitted dose curve; in most records, active means well fitted curve in the direction sought with a large enough effect; inconclusive means small, poorly fitted or top-dose-only effect, or effect the other way; inactive means no such curve, though single readings can be large or run the other way. The list shows a part of the results.
Please answer using one outcome listed in active, inactive

Record excerpt, results attached:
>  <chemical_string>
N[C@H](C(=O)O)c1cccc(O)c1

>  <class_label>
inactive

$$$$
>  <chemical_string>
N[C@H](C(=O)O)c1ccc(C(=O)O)c(O)c1

>  <class_label>
inactive

$$$$
>  <chemical_string>
CC1CCN(CCCn2c(=S)[nH]c3ccc(N4CCOCC4)cc3c2=O)CC1

>  <class_label>
inactive

$$$$

Exercise: Record lookup: outcome of this test for `CCn1cc(C(=O)O)c(=O)c2cc3c(cc21)OCO3` ?
Key: inactive

Exercise: Any idea what this test logged for `CCOC(=O)c1[nH]c2cc3c(cc2c1NC(=O)CN1CCC2(CC1)OCCO2)OCO3` ?
Key: inactive

Exercise: How did this test come out for `Cn1ncc(Cl)c1C(=O)Nc1cccnc1` ?
Key: inactive

Exercise: Dear all, I need the recorded test outcome for `CCCCNC(=O)CCn1c(=S)[nH]c2cc3c(cc2c1=O)OCO3` , thank you.
Key: active

Exercise: Name the outcome recorded for `N[C@H](C(=O)O)c1cc(O)cc(O)c1` in the assay.
Key: active
